- measured_on: T1, human GLP-1 receptor (human, UniProt P43220 24-463)
- T1 construct: whole, on cells; Used as membrane preparations of the transfected hamster (BHK) cell line, not as whole cells; also called hGLP-1/BHK 467-12A membranes
- experiment_notes: SPA, displacement of 125I-GLP-1(7-36)NH2 from membranes with human GLP-1 receptor, 0.005% HSA
Numbered stars: 1 amine (or outer) side, 2 acyl side, 3 side chain; on linkers, the order of the positions; unused ones are H or OH. Side chains are listed from the residue outwards. Ends that are not written are not given here. * marks the point of attachment. Malonyl(2,2-Me2,histaminyl) = CC(C)(C(=O)NCCc1cnc[nH]1)C(=O)*; Decanoyl(10-(4-HOOC-PhO)) = O=C(O)c1ccc(OCCCCCCCCCC(=O)*)cc1; γGlu = O=C(O)[C@H](CCC(=O)[*:2])N[*:1]; C14 diacid = O=C(O)CCCCCCCCCCCCC(=O)*; AEEA = NCCOCCOCC(=O)O
The following binders are shown together with reported IC50 values.
observation_type: IC50

binder: HAEGTFTSDVSSYLEGQAAK([AEEA-AEEA-γGlu-C14 diacid])EFIAWLVRGRK([AEEA-AEEA-γGlu-C14 diacid])
observation_type: IC50
assay_result: < 600 nM
--
binder: {Malonyl(2,2-Me2,histaminyl)}-EGTFTSDVSSYLEGQAAK([AEEA-AEEA-γGlu-Decanoyl(10-(4-HOOC-PhO))])EFIAWLVRGRK([AEEA-AEEA-γGlu-Decanoyl(10-(4-HOOC-PhO))])E (also called Chem. 41) [N^9-{2-[2-(1H-Imidazol-4-yl)ethylcarbamoyl]-2-methylpropionyl}, …]
observation_type: IC50
assay_result: < 600 nM
